B1: library; a variant is named by its letters at N, in order (parent)
chain: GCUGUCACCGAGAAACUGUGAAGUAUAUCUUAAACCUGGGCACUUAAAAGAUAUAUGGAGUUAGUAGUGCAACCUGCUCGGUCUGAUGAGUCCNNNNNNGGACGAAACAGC

Variants of: B1
measurement.description: normalized RNA/DNA level with ligand (relative to sTRSVctl = 100) (log10 (% of sTRSVctl)); HEK293T; ligand: cyclic di-GMP (c-di-GMP-II aptamer); ligand concentration (+) RNA-Seq: 1 mM; higher = less ribozyme self-cleavage, higher mRNA level
settings: reporter: mCherry (pCS4076), ligand present: yes
parameter: normalized RNA/DNA level with ligand (log10)
Reply with the value as a number alone.

Input GCUGUCACCGAGAAACUGUGAAGUAUAUCUUAAACCUGGGCACUUAAAAGAUAUAUGGAGUUAGUAGUGCAACCUGCUCGGUCUGAUGAGUCCAUGGGAGGACGAAACAGC [AUGGGA] , output reported normalized RNA/DNA level with ligand (log10). 1.56

Input GCUGUCACCGAGAAACUGUGAAGUAUAUCUUAAACCUGGGCACUUAAAAGAUAUAUGGAGUUAGUAGUGCAACCUGCUCGGUCUGAUGAGUCCUAGCGCGGACGAAACAGC [UAGCGC] , output reported normalized RNA/DNA level with ligand (log10). 1.88

Input GCUGUCACCGAGAAACUGUGAAGUAUAUCUUAAACCUGGGCACUUAAAAGAUAUAUGGAGUUAGUAGUGCAACCUGCUCGGUCUGAUGAGUCCUUUCAGGGACGAAACAGC [UUUCAG] , output reported normalized RNA/DNA level with ligand (log10). 1.86

Input GCUGUCACCGAGAAACUGUGAAGUAUAUCUUAAACCUGGGCACUUAAAAGAUAUAUGGAGUUAGUAGUGCAACCUGCUCGGUCUGAUGAGUCCUUACUUGGACGAAACAGC [UUACUU] , output reported normalized RNA/DNA level with ligand (log10). 1.83

Input GCUGUCACCGAGAAACUGUGAAGUAUAUCUUAAACCUGGGCACUUAAAAGAUAUAUGGAGUUAGUAGUGCAACCUGCUCGGUCUGAUGAGUCCUGGUCAGGACGAAACAGC [UGGUCA] , output reported normalized RNA/DNA level with ligand (log10). 1.89

Input GCUGUCACCGAGAAACUGUGAAGUAUAUCUUAAACCUGGGCACUUAAAAGAUAUAUGGAGUUAGUAGUGCAACCUGCUCGGUCUGAUGAGUCCAAUCCAGGACGAAACAGC [AAUCCA] , output reported normalized RNA/DNA level with ligand (log10). 1.79

Input GCUGUCACCGAGAAACUGUGAAGUAUAUCUUAAACCUGGGCACUUAAAAGAUAUAUGGAGUUAGUAGUGCAACCUGCUCGGUCUGAUGAGUCCUCGGGCGGACGAAACAGC [UCGGGC] , output reported normalized RNA/DNA level with ligand (log10). 1.94

Input GCUGUCACCGAGAAACUGUGAAGUAUAUCUUAAACCUGGGCACUUAAAAGAUAUAUGGAGUUAGUAGUGCAACCUGCUCGGUCUGAUGAGUCCUUCUGCGGACGAAACAGC [UUCUGC] , output reported normalized RNA/DNA level with ligand (log10). 1.92

Input GCUGUCACCGAGAAACUGUGAAGUAUAUCUUAAACCUGGGCACUUAAAAGAUAUAUGGAGUUAGUAGUGCAACCUGCUCGGUCUGAUGAGUCCACCUGCGGACGAAACAGC [ACCUGC] , output reported normalized RNA/DNA level with ligand (log10). 1.85

Input GCUGUCACCGAGAAACUGUGAAGUAUAUCUUAAACCUGGGCACUUAAAAGAUAUAUGGAGUUAGUAGUGCAACCUGCUCGGUCUGAUGAGUCCACGUGGGGACGAAACAGC [ACGUGG] , output reported normalized RNA/DNA level with ligand (log10). 1.74

Input GCUGUCACCGAGAAACUGUGAAGUAUAUCUUAAACCUGGGCACUUAAAAGAUAUAUGGAGUUAGUAGUGCAACCUGCUCGGUCUGAUGAGUCCAUUUGGGGACGAAACAGC [AUUUGG] , output reported normalized RNA/DNA level with ligand (log10). 1.77

Input GCUGUCACCGAGAAACUGUGAAGUAUAUCUUAAACCUGGGCACUUAAAAGAUAUAUGGAGUUAGUAGUGCAACCUGCUCGGUCUGAUGAGUCCCCUACAGGACGAAACAGC [CCUACA] , output reported normalized RNA/DNA level with ligand (log10). 1.77
